Reference source for all entries: ChEMBL document CHEMBL3991601

The source made the active and inactive calls.
Consider the following Kd values measured on Serine/threonine-protein kinase/endoribonuclease IRE1 (Homo sapiens).
Sequence (O75460 whole entry): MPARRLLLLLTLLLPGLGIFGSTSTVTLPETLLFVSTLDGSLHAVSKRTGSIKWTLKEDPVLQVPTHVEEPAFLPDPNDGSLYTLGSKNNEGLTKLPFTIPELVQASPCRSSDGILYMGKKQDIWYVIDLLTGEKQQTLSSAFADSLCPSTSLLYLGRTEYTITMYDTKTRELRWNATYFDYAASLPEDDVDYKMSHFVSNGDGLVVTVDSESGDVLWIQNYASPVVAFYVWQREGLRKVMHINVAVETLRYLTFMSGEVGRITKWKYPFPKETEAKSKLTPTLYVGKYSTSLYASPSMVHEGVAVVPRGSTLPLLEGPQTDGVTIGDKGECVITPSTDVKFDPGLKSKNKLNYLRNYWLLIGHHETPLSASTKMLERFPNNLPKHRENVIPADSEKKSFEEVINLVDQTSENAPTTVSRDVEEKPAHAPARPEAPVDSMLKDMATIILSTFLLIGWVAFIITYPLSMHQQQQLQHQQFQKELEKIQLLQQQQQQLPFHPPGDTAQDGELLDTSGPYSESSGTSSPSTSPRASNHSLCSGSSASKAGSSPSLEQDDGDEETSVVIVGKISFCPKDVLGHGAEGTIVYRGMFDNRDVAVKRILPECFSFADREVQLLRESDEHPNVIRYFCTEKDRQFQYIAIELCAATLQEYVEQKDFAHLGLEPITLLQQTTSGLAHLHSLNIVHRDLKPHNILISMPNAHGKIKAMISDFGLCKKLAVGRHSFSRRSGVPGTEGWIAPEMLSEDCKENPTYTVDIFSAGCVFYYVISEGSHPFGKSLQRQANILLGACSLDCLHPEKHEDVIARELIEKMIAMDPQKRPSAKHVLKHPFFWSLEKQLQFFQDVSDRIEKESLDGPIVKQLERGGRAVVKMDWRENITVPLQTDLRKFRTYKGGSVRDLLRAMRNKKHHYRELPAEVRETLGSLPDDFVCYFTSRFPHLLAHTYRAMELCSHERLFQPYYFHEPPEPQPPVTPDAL

Field: example entries. Status: answers known.
O=c1[nH]c([C@@H]2CCCN2)nc2c1oc1ccc(Cl)cc12; > 30 µM (inactive)
O=C(Nc1ccc(OC(F)(F)F)cc1)c1sccc1NCc1ccnc2ccccc12 [OSI-930]; > 30 µM (inactive)
COc1cc(Nc2ncc(F)c(Nc3ccc4c(n3)N(COP(=O)(O)O)C(=O)C(C)(C)O4)n2)cc(OC)c1OC [FOSTAMATINIB]; > 30 µM (inactive)

Here is the next item to consider.
Record Cc1c(NC(=O)OC[C@@H]2COCCN2)cn2ncnc(Nc3ccc4c(cnn4Cc4cccc(F)c4)c3)c12 [AC-480] / Serine/threonine-protein kinase/endoribonuclease IRE1 (Homo sapiens), Kd recorded as > 30 µM (inactive)
